System: β-catenin/BCL9 PPI (Homo sapiens)
Construct: 40 nM His6-tagged FL-β-catenin
Sequence (P35222 1-781): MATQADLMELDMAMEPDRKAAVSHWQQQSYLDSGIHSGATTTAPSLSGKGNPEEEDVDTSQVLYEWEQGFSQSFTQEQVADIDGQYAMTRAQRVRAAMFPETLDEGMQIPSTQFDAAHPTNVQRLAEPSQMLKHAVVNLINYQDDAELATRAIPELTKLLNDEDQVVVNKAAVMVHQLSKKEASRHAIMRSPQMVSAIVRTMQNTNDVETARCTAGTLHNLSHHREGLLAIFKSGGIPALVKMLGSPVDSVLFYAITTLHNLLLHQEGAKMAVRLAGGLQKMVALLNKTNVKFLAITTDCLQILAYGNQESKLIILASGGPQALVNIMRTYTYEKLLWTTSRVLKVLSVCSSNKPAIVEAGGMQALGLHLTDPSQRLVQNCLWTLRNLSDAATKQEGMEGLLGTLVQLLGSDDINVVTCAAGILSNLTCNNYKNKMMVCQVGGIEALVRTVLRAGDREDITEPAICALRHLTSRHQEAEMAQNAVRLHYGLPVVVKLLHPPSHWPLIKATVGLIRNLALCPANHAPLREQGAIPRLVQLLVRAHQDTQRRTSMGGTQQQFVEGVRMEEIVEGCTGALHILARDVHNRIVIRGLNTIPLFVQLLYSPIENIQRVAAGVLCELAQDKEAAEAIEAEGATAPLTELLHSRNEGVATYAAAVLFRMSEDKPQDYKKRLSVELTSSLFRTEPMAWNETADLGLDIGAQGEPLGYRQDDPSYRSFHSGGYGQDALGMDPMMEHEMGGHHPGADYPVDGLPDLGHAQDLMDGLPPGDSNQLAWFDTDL
Assay Notes: AlphaScreen competitive inhibition assay of β-catenin/BCL9 PPI
Format: binding
Stated Conditions: AlphaScreen, Ki derived from IC50 by method of Nikolovska-Coleska et al., mean ± SD
Quantity Kind: Ki

Substance: Ac-SQEQLEHRERSLQTLRDIQRMLF-NH2 [Peptide 1, reference compound]
Value: 1130 nM
